assay: NCI Yeast Anticancer Drug Screen. Data for the wt2 strain (AID 169);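 note: 0% = growth of vehicle-treated yeast cultures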; details: S. cerevisiae wt2 strain growth inhibition; at 1.2 µM; hits give high values
This is part of a sample that, as a whole, favours compounds with a hit. Of some 79,000 tested, about 15% had one in any assay.
reported-endpoint: growth inhibition (%)
Respond with the bare value in %.

Recorded growth inhibition, per entry:
O=C1c2ccccc2C(=O)c2sc(Nc3ccccc3Cl)nc21: 1
O=S1(=O)CCC2=CC(C(F)(F)F)=CC(C(F)(F)F)=CN21: 3
COC(=O)C(Cl)(Cl)N=Nc1c(Cl)cc(Cl)c(C)c1Cl: -3
CC1CN(/N=C\c2ccc([N+](=O)[O-])o2)C(=O)O1 (configuration not stated): -3
CCC(/C=C/c1ccccc1)=N\Nc1ccc(Cl)cc1: -4

Returns the measured growth inhibition for the input compound. Input: O=C(NCCCCN1CC2CCCC2C1)C(C1CCCCC1)C1CCCCC1 (configuration not stated) 2

Another compound to look at: "Nc1ccc2c(c1)C(=O)c1c(F)cccc1-2" -1

Another compound to look at: "O=C1C=C(Br)C(=O)c2ccccc21" 13

Another compound to look at: "COc1ccc(-c2cc(-c3cc(C)cc(Cl)c3O)nc3[nH]c(=S)[nH]c(=S)c23)cc1" 0

These data points were gathered from PubChem BioAssay (NCI).
